Target: CD73 (Homo sapiens (Human), UniProt P21589)
Sequence (P21589 27-574): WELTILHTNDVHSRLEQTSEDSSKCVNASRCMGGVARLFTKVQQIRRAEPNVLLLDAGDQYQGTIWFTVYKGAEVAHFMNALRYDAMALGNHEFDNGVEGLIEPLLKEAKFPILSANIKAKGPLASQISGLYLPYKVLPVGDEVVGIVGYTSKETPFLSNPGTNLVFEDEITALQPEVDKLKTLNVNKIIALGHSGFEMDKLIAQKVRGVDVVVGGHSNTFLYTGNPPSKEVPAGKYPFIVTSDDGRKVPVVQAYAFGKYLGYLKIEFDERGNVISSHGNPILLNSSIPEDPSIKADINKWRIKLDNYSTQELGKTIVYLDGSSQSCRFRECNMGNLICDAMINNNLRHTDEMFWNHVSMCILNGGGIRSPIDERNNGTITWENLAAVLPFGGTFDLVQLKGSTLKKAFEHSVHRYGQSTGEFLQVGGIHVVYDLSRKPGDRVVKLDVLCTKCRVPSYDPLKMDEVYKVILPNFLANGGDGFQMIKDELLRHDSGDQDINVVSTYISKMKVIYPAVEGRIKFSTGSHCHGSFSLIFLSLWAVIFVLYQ
Test: MDA-MB-231 Cell Based CD73 Activity Assay (DMEM)
Conditions: MDA-MB-231-GFP cells, DMEM medium with 10% human plasma, 200 uM AMP
Method: MDA-MB-231 Cell Based CD73 Activity Assay (DMEM) MDA-MB-231-GFP cells were seeded in 384-well plates (Greiner 781946) at a density of 3000 cells per well in 50 μL of DMEM medium with 10% HP (human plasma). Cells were plated into assay plate with compounds pre-spotted, for an overnight compound treatment. 50 uL of 400 uM AMP (final concentration will be 200 uM) was added using Bio-tek dispenser. Plates were incubated for 100 mins. […] The samples were analyzed using Rapid fire.
PARAMETER_MEASURED: EC50 (µM)

[
  {
    "COMPOUND": "O=C(NC1CN(c2cc(-c3c[nH]c(=O)[nH]c3=O)nn3ccnc23)CC1(F)F)OCC1CC1 (stereo not shown)",
    "RECORDED_VALUE": 0.0203
  },
  {
    "COMPOUND": "C[C@@H]1CN(c2cc(-c3c[nH]c(=O)[nH]c3=O)nn3ccnc23)CC1(F)F",
    "RECORDED_VALUE": 0.0214
  },
  {
    "COMPOUND": "N#Cc1cc(F)cc([C@H]2C[C@@H]2c2cc(-c3c[nH]c(=O)[nH]c3=O)nn3ccnc23)c1 (racemic)",
    "RECORDED_VALUE": 0.0177
  },
  {
    "COMPOUND": "O=C(CC1CN(c2cc(-c3c[nH]c(=O)[nH]c3=O)nn3ccnc23)CC1(F)F)NC12CC(C1)C2 (stereo not shown)",
    "RECORDED_VALUE": 0.0255
  },
  {
    "COMPOUND": "O=c1[nH]cc(-c2cc(N3CC(F)(F)C4(CCC4)C3)c3nccn3n2)c(=O)[nH]1",
    "RECORDED_VALUE": 0.0112
  },
  {
    "COMPOUND": "O=c1[nH]cc(-c2cc(N3CC4CC3C4)c3nccn3n2)c(=O)[nH]1",
    "RECORDED_VALUE": 0.207
  },
  {
    "COMPOUND": "O=C(NC1CN(c2cc(-c3c[nH]c(=O)[nH]c3=O)nn3ccnc23)CC1(F)F)OCC(F)(F)F (stereo not shown)",
    "RECORDED_VALUE": 0.0287
  }
]

====

target: CD73 (Homo sapiens (Human)); format: biochemical; conditions: 1 mM NaH2PO4 in enzyme buffer, CD73 0.3 nM, AMP 15 uM
Recorded IC50, one value per entry.

[
  {
    "MOLECULE": "O=c1[nH]cc(-c2cc(N3CCC4(CCC4)C3)c3nccn3n2)c(=O)[nH]1",
    "IC50": "6.66 nM"
  },
  {
    "MOLECULE": "CC1(C)CN(c2cc(-c3c[nH]c(=O)[nH]c3=O)nc3ccnn23)CC1(F)F",
    "IC50": "8.01 nM"
  },
  {
    "MOLECULE": "O=C(OCC(F)(F)F)OCC(F)(F)COc1cc(-c2c[nH]c(=O)[nH]c2=O)nn2ccnc12",
    "IC50": "0.51 nM"
  },
  {
    "MOLECULE": "COC(=O)c1cccc(C2CCN(c3cc(-c4c[nH]c(=O)[nH]c4=O)nn4ccnc34)C2)c1 (stereo not drawn)",
    "IC50": "5.59 nM"
  },
  {
    "MOLECULE": "O=C(c1cccc([C@H]2C[C@@H]2c2cc(-c3c[nH]c(=O)[nH]c3=O)nn3ccnc23)c1)N1CC(F)(F)C(F)(F)C1 (racemic)",
    "IC50": "3.59 nM"
  },
  {
    "MOLECULE": "O=c1[nH]cc(-c2cc(NC3CCCC3)c3nccn3n2)c(=O)[nH]1",
    "IC50": "121 nM"
  },
  {
    "MOLECULE": "O=C1N(CC(F)(F)F)c2cc([C@H]3C[C@@H]3c3cc(-c4c[nH]c(=O)[nH]c4=O)nn4ccnc34)ccc2C12CCCC2",
    "IC50": "1.27 nM"
  },
  {
    "MOLECULE": "N#Cc1cc(F)c([C@H]2C[C@@H]2c2cc(-c3c[nH]c(=O)[nH]c3=O)nn3ccnc23)c(F)c1",
    "IC50": "1.64 nM"
  },
  {
    "MOLECULE": "O=c1[nH]cc(-c2cc(N3CCC4(C3)CC(F)(F)C4)c3nccn3n2)c(=O)[nH]1",
    "IC50": "30.4 nM"
  },
  {
    "MOLECULE": "O=c1[nH]cc(-c2cc(N3C[C@H](Oc4ccc(F)c(C(F)F)c4)C(F)(F)C3)c3nccn3n2)c(=O)[nH]1",
    "IC50": "0.62 nM"
  },
  {
    "MOLECULE": "O=c1[nH]cc(-c2cc(N3CCC(F)(c4ccc(F)cc4)C3)c3nccn3n2)c(=O)[nH]1 (stereo not drawn)",
    "IC50": "17.5 nM"
  },
  {
    "MOLECULE": "N#Cc1ccc(O[C@H]2CN(c3cc(-c4c[nH]c(=O)[nH]c4=O)nn4ccnc34)CC2(F)F)nc1",
    "IC50": "0.91 nM"
  },
  {
    "MOLECULE": "O=c1[nH]cc(-c2cc(NC3CCC(F)(F)C3)c3nccn3n2)c(=O)[nH]1 (stereo not drawn)",
    "IC50": "> 250 nM"
  },
  {
    "MOLECULE": "O=C(CC1CN(c2cc(-c3c[nH]c(=O)[nH]c3=O)nn3ccnc23)CC1(F)F)NC12CC(F)(C1)C2 (stereo not drawn)",
    "IC50": "6.05 nM"
  },
  {
    "MOLECULE": "O=c1[nH]cc(-c2cc(N3C[C@H](Oc4ccc(OC(F)(F)F)cn4)C(F)(F)C3)c3nccn3n2)c(=O)[nH]1",
    "IC50": "2.8 nM"
  }
]

====

target: CD73 (Homo sapiens (Human), UniProt P21589); assay: MDA-MB-231 Cell Based CD73 Activity Assay (DMEM); conditions: MDA-MB-231-GFP cells, DMEM medium with 10% human plasma, 200 uM AMP
Lab note: anything with EC50 below 30 nM is marked criterion met; values at 30 nM or higher are marked criterion not met.

[
  {
    "COMPOUND": "O=c1[nH]cc(-c2cc([C@H]3C[C@@H]3c3cc(F)c4cnn(CC(F)(F)F)c4c3)c3nccn3n2)c(=O)[nH]1",
    "SYSTEM_TESTED": "CD73 (Homo sapiens (Human), UniProt P21589)",
    "LABEL_VALUE": "criterion met"
  },
  {
    "COMPOUND": "O=C(Nc1ccccc1F)OCC(F)(F)COc1cc(-c2c[nH]c(=O)[nH]c2=O)nn2ccnc12",
    "SYSTEM_TESTED": "CD73 (Homo sapiens (Human), UniProt P21589)",
    "LABEL_VALUE": "criterion met"
  },
  {
    "COMPOUND": "O=c1[nH]cc(-c2cc([C@@H]3C[C@H]3c3ccc4cnn(CC(F)F)c4c3)c3nccn3n2)c(=O)[nH]1",
    "SYSTEM_TESTED": "CD73 (Homo sapiens (Human), UniProt P21589)",
    "LABEL_VALUE": "criterion met"
  },
  {
    "COMPOUND": "COC(=O)c1ccc(C2CN(c3cc(-c4c[nH]c(=O)[nH]c4=O)nn4ccnc34)C2)cc1",
    "SYSTEM_TESTED": "CD73 (Homo sapiens (Human), UniProt P21589)",
    "LABEL_VALUE": "criterion not met"
  },
  {
    "COMPOUND": "O=c1[nH]cc(-c2cc(N3C4CCCC3CC4)c3nccn3n2)c(=O)[nH]1",
    "SYSTEM_TESTED": "CD73 (Homo sapiens (Human), UniProt P21589)",
    "LABEL_VALUE": "criterion not met"
  },
  {
    "COMPOUND": "CC(NC(=O)O[C@H]1CN(c2cc(-c3c[nH]c(=O)[nH]c3=O)nn3ccnc23)CC1(F)F)C(F)F (stereo partly shown)",
    "SYSTEM_TESTED": "CD73 (Homo sapiens (Human), UniProt P21589)",
    "LABEL_VALUE": "criterion met"
  },
  {
    "COMPOUND": "CCC(F)(F)COc1cc(-c2c[nH]c(=O)[nH]c2=O)nn2ccnc12",
    "SYSTEM_TESTED": "CD73 (Homo sapiens (Human), UniProt P21589)",
    "LABEL_VALUE": "criterion not met"
  }
]
